Form field: Inhibition at 10µM (%) (one value per entry).
System: CDK17/Cyclin Y (Homo sapiens, UniProt Q00537)
Sequence (Q00537 whole entry): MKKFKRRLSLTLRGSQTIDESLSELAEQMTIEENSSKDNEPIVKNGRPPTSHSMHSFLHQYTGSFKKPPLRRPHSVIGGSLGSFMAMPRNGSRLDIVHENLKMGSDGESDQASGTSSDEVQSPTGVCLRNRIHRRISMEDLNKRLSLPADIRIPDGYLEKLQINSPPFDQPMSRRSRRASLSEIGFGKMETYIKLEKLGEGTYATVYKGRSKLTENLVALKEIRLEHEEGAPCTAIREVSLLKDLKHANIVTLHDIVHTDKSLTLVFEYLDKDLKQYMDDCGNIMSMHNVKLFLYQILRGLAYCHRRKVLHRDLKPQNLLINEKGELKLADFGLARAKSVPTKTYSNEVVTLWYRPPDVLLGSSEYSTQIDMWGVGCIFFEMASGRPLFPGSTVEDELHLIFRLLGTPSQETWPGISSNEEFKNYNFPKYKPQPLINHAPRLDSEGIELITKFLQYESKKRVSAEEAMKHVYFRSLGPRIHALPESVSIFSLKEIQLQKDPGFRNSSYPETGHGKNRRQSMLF
Sequence (Q8ND76 whole entry partner): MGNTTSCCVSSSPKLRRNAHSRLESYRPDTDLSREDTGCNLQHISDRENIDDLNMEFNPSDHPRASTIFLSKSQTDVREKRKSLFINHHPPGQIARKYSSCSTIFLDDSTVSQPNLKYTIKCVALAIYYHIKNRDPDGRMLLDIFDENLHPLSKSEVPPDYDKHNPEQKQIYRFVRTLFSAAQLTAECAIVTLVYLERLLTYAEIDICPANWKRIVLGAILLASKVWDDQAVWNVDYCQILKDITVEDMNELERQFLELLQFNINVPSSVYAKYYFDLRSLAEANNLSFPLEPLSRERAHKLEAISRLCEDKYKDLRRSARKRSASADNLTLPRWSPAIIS
Test protocol: NanoBRET live-cell target engagement, CDK17-NanoLuc/Cyclin Y in HEK-293
Type: binding
Condition notes: CDK17/Y; experiment 2
Enter your answer as a number in %; do not include the unit.

Example molecules with recorded Inhibition at 10µM (%):
>>> df
                                   molecule  result_value
0  CS(=O)(=O)N1CCC(NC(=O)c2[nH]ncc2NC(=O)c2c(Cl)cccc2Cl)CC1          92.4
1  CNc1nc(C)c(-c2nc(Nc3cccc(S(N)(=O)=O)c3)ncc2F)s1          92.0
2  CCn1cnc2c(Nc3cccc(Cl)c3)nc(N[C@@H]3CCCC[C@@H]3N)nc21 [CGP74514A]          81.0
3  CC(C)c1c2cc(-c3ccnc(N[C@H]4CC[C@H](NC5CCOCC5)CC4)n3)ccc2nn1C          91.4
4  CC(C)c1cnn2c(NCc3ccccc3-n3cccn3)nc(OC3CCCNC3)nc12 (stereo not drawn)          91.8

Now examine the next entry.
[in] Could you share which Inhibition at 10µM (%) value was measured for CN1CCC(c2c(O)cc(O)c3c(=O)cc(-c4ccccc4Cl)oc23)C1CO (stereo not drawn) ?
[out] 66.7
